Assay Comment: Cytotoxic activity, colorimetric MTT assay on keratinocytes
Type: cell-based
Test Context: human, HaCaT keratinocyte cells, interpretation proposed by Döll-Boscardin et al.
Source text: The effect of each essential oil on the global growth of the cell line was investigated through a colorimetric MTT assay as previously described. […] A spectrophotometer (680XR, BioRad, Hercules, CA, USA) was used to measure the absorbance (at 570 and 630 nm), which can be directly correlated to the number of viable cells (cell viability (% RC) = (absorbance of treated cells/absorbance of control) × 100).
Outcome Measure: IC50 at 72 h

> print(dat)
                                 molecule  recorded.measurement
1  C=CC(C)(O)CCC=C(C)C (stereo not shown)           < 31.3 mg/L
